Numbers sourced from ChEMBL document CHEMBL4513149.

# Tested on: Escherichia coli
# recorded.conditions: Concentration 20 uM; ASSAY_TEST Inhibition of Bacterial Growth; detection method Absorption (OD600); MEDIA CAMHB; plate type 384well; NBS; CORNING #3640; time 18 hr
# Description: Antibacterial activity against Escherichia coli ATCC 25922 (CO-ADD:GN_001); MIC in CAMBH media using NBS plates, by OD(600)
Results with a measured potency or affinity are listed apart.
Measured Inhibition, listed per entry.

See these solved cases before continuing.
{"compound": "COC(=O)c1c(NC(=O)c2c(F)c(F)c(F)c(F)c2F)sc2c1CCCCC2", "Inhibition": "6.57%"}
{"compound": "COc1ccc(C2=NCCN2)cc1-c1cn(-c2cccc(C3=NCCN3)c2)nn1.O=C(O)C(F)(F)F.O=C(O)C(F)(F)F", "Inhibition": "10.7%"}
{"compound": "Nc1ncc(-c2ccc(C(F)(F)F)nc2)cc1-c1ccc(C(F)(F)F)nc1", "Inhibition": "7.53%"}
{"compound": "CC(C)(C)OC(=O)N1CCC(Cn2nc(-c3cnc4ccccc4c3)c3c(N)ncnc32)CC1", "Inhibition": "10.38%"}
{"compound": "Cc1nn2c(O)c3c(nc2c1-c1ccc(F)cc1)CCCC3", "Inhibition": "16.25%"}

# value of Inhibition, Escherichia coli, item "CS(=O)(=O)N1CCC(CCn2nc(Cc3cccc4ccccc34)c3c(N)ncnc32)CC1" = -2.01%

# value of Inhibition, Escherichia coli, item Cc1ccc(C(=O)Nc2ccc(S(=O)(=O)O)c3cc(S(=O)(=O)O)cc(S(=O)(=O)O)c23)cc1NC(=O)c1cccc(NC(=O)Nc2cccc(C(=O)Nc3cc(C(=O)Nc4ccc(S(=O)(=O)O)c5cc(S(=O)(=O)O)cc(S(=O)(=O)O)c45)ccc3C)c2)c1 [SURAMIN] = 7.96%

# value of Inhibition, Escherichia coli, item "O=C(C1CCN(c2cc(-n3cccc3)ncn2)CC1)N1CCc2ccccc2C1" = 12.02%

---

# Tested on: Staphylococcus aureus
# recorded.conditions: Concentration 20 uM; ASSAY_TEST Inhibition of Bacterial Growth; detection method Absorption (OD600); MEDIA CAMHB; plate type 384well; NBS; CORNING #3640; time 18 hr
# Description: Antibacterial activity against Staphylococcus aureus MRSA ATCC 43300 (CO-ADD:GP_020); MIC in CAMBH media, using NBS plates, by OD(600)
Entries with a potency or affinity are not part of this list.
Label Condition not met if Inhibition falls below 10%; label Condition met in every other case.

Here's what some known entries look like.
{"compound": "COc1ccc(C2=NN(C3CCCCCC3)C(=O)C2(C)C)cc1OCCCCOc1ccc(-c2nn[nH]n2)cc1", "class.assignment": "Condition met"}
{"compound": "CCc1nc2ccc(C(=O)NCc3ccc4c(c3)OCO4)cn2c1N(C)Cc1cccs1", "class.assignment": "Condition not met"}
{"compound": "O=C(c1ccc(NCCO)cc1)C1C[C@H]1c1ccc(Cl)cc1 (stereo partly specified)", "class.assignment": "Condition not met"}
{"compound": "CC(C)(C)c1cnc(NC(=O)c2ccccc2O)s1", "class.assignment": "Condition met"}

// query Check the entry "Nc1ncnc2[nH]nc(Cc3cccc4ccccc34)c12" : does Inhibition equal or exceed 10%?
// result Condition met

// query Check the entry "COc1cc(C2=NCCN2)ccc1-n1cc(-c2cccc(C3=NCCN3)c2)nn1.O=CO.O=CO" : does Inhibition equal or exceed 10%?
// result Condition not met

// query Check the entry "O=C(NCc1ccco1)N1CCN(Cc2ccc(Cl)s2)CC1" : does Inhibition equal or exceed 10%?
// result Condition not met

// query Check the entry "COc1cc(Br)cc2cc(C(=O)Nc3cccc(C(F)(F)F)c3)c(=O)oc12" : does Inhibition equal or exceed 10%?
// result Condition not met

// query Check the entry "COc1ccc(S(=O)(=O)Nc2ccc(CN3CCN(C(=O)c4cccc(C#N)c4)CC3)cc2)cc1" : does Inhibition equal or exceed 10%?
// result Condition not met

// query Check the entry "Cc1cnc(N2CCN[C@@H](Cc3ccccc3)C2)nc1Oc1ccc(-n2ccnc2)cc1.Cl" : does Inhibition equal or exceed 10%?
// result Condition met

// query Check the entry CN1CCCN(C(c2ccccc2)c2ccc(Cl)cc2)CC1 (stereo unspecified) [HOMOCHLORCYCLIZINE] : does Inhibition equal or exceed 10%?
// result Condition met

// query Check the entry "Cc1cc(OCC(=O)NCc2ccccc2)c2cc(Br)ccc2n1" : does Inhibition equal or exceed 10%?
// result Condition met

// query Check the entry "O=C(N[C@H](Cc1ccccc1)C(=O)Nc1ccccc1N1CCOCC1)c1cccs1" : does Inhibition equal or exceed 10%?
// result Condition met

// query Check the entry "CN1CCN(S(=O)(=O)c2ccc(-c3ccc4c(Nc5ccc6nn[nH]c6c5)ccnc4c3)cc2)CC1" : does Inhibition equal or exceed 10%?
// result Condition met

// query Check the entry CCOc1ccccc1NC(C)C(=O)Nc1cc(C(F)(F)F)ccc1N1CCOCC1 (stereo unspecified) : does Inhibition equal or exceed 10%?
// result Condition met

// query Check the entry "CCOc1ccccc1C(=O)Nc1cccc(-c2nc3ncccn3c2C)c1" : does Inhibition equal or exceed 10%?
// result Condition not met

// query Check the entry "c1cc(C2=NCCN2)cc(-c2cc(-c3ccc(C4=NCCN4)cc3)no2)c1" : does Inhibition equal or exceed 10%?
// result Condition not met

// query Check the entry "Cc1cc(Cl)ccc1NC(=O)CCc1ccc(S(=O)(=O)NCC(C)C)cc1" : does Inhibition equal or exceed 10%?
// result Condition not met

// query Check the entry "Cc1ccc(-c2cc(C(=O)Nc3cccnc3)c3cc(Br)ccc3n2)cc1" : does Inhibition equal or exceed 10%?
// result Condition met

// query Check the entry "N#Cc1ccc(-c2ccc(OCC(N)=O)cc2)cc1" : does Inhibition equal or exceed 10%?
// result Condition not met

// query Check the entry "Cc1cc(C)n(-c2ccc(NC(=O)C3CCN(Cc4cnc(C)s4)CC3)cc2)n1" : does Inhibition equal or exceed 10%?
// result Condition met

---

# Tested on: Staphylococcus aureus
# recorded.conditions: Concentration 20 uM; ASSAY_TEST Inhibition of Bacterial Growth; detection method Absorption (OD600); MEDIA CAMHB; plate type 384well; NBS; CORNING #3640; time 18 hr
Measured potencies and affinities stand elsewhere.
measured.quantity: Inhibition (%)
Field format: number, assumed %, no unit text.

See these solved cases before continuing.
{"compound": "Clc1ccc(CN2CCN(C3=NCCN3)CC2)cc1Cl", "measurement.target": "Staphylococcus aureus", "observed": 14.27}
{"compound": "Cc1cccc(Cn2ccc(NC(=O)c3ccc4c(c3)OCO4)n2)c1", "measurement.target": "Staphylococcus aureus", "observed": 18.14}
{"compound": "CN1CCC(NCc2cccc(-c3ccc(S(=O)(=O)NCc4ccccc4)cc3)c2)CC1", "measurement.target": "Staphylococcus aureus", "observed": 14.84}

Memo: CCC(NC(=O)c1ccccc1NC(=O)c1ccc(C)cc1)C(=O)OC (stereo unspecified) , reported Inhibition: 17.84

---

# System: Escherichia coli
# recorded.conditions: Concentration 20 uM; ASSAY_TEST Inhibition of Bacterial Growth; detection method Absorption (OD600); MEDIA CAMHB; plate type 384well; NBS; CORNING #3640; time 18 hr
Entries with a potency or affinity are not part of this list.
measured.quantity: Inhibition (%)
Field format: number, assumed %, no unit text.

See these solved cases before continuing.
{"compound": "Cc1cc(C)cc(COc2ccc3c(C)c(CCC(=O)O)c(=O)oc3c2C)c1", "measurement.target": "Escherichia coli", "Inhibition (%)": 4.13}
{"compound": "CN(C)CCNC(=O)N1CCCN(c2ncnc3cc(-c4ccccc4)sc23)CC1", "measurement.target": "Escherichia coli", "Inhibition (%)": 3.44}
{"compound": "Cc1nn(C(=O)Nc2cccc(C(F)(F)F)c2)c(C)c1Sc1ncccn1", "measurement.target": "Escherichia coli", "Inhibition (%)": 7.79}
{"compound": "O=C(NC1CCN(c2ccnc3ccccc23)C1)c1cccc(C(F)(F)F)c1 (stereo not given)", "measurement.target": "Escherichia coli", "Inhibition (%)": 9.38}

For the next question, use this compound.
Memo: "COc1ccccc1CNC(=O)c1cc(C2CC2)nc2c1cnn2C(C)C" , reported Inhibition: -2.58

---

# Tested on: Escherichia coli
# recorded.conditions: Concentration 20 uM; ASSAY_TEST Inhibition of Bacterial Growth; detection method Absorption (OD600); MEDIA CAMHB; plate type 384well; NBS; CORNING #3640; time 18 hr
Results with a measured potency or affinity are listed apart.
measured.quantity: Inhibition (%)
Field format: number, assumed %, no unit text.

See these solved cases before continuing.
{"compound": "CCc1ccc(S(=O)(=O)Nc2cc(CN3CCN(CCC(C)C)CC3)ccc2C)cc1", "measurement.target": "Escherichia coli", "unit.text": "%", "Inhibition": 13.04}
{"compound": "C[C@H](C(N)=O)N1CCCC[C@@H]1c1ccc(OCc2cccc(F)c2)cc1", "measurement.target": "Escherichia coli", "unit.text": "%", "Inhibition": 2.14}
{"compound": "Cl.O=C(Nc1ccc(N2CCNCC2)nc1)c1oc(-c2ccccc2)nc1C(F)(F)F", "measurement.target": "Escherichia coli", "unit.text": "%", "Inhibition": 0.64}
{"compound": "CC(C)(C)CN1C(=O)C(c2ccccc2)(c2ccccc2)N=C1N", "measurement.target": "Escherichia coli", "unit.text": "%", "Inhibition": 4.18}

Memo: "COc1ccc(N(CCc2cccc(C)n2)C(=O)C2CCCCC2)cc1" , reported Inhibition: 3.67

Memo: "Cc1cccc(-c2nc(Nc3ccncn3)c3sccc3n2)n1" , reported Inhibition: 8.12

Memo: "Cc1nnc(NCc2cccc(Cl)c2)c2ccccc12" , reported Inhibition: 9.19

Memo: "CCOc1ccc(-c2nc(NC(=O)CS(=O)(=O)c3ccccc3)sc2C)cc1" , reported Inhibition: -0.36

Memo: CCC(NC(=O)c1ccccc1NC(=O)c1ccc(C)cc1)C(=O)OC (stereo unspecified) , reported Inhibition: 3.87

Memo: "CCN(CC)CCCN1CCN(C(=O)c2cccc(-c3noc(C(F)(F)F)n3)c2)CC1" , reported Inhibition: -1.62

Memo: "Cc1cc(OCC(=O)Nc2ccc(C(C)C)cc2)n(C)c(=O)c1C#N" , reported Inhibition: 14.16
